The reported numbers originate from paper PMC8587999.

System: T. gondii β-gal tachyzoites
Assay: IC50 determination with T. gondii β-gal tachyzoites grown in HFF monolayers
Assay type: cell-based, Toxoplasma gondii
Details: Toxoplasma gondii; Tg-β-gal in HFF; compound added prior to / concomitantly with infection; [upper; lower limit of 95% CI]; read-out: IC50 T. gondii (nM) [LS; LI] Compound Added Prior to Infection
measurement_type: IC50 (nM)
// note: answer is a bare numeric in nM

1) CCCCCCCCCCOc1cc2c(OC(=O)N3CCN(S(C)(=O)=O)C3=O)c(C(=O)OCC)cnc2cc1OCC [RMB060]    0.07

Which IC50 is listed for CCCCCCCCCCOc1cc2c(O)c(C(=O)OCC)cnc2cc1OCC [DCQ] ?
1.1

Which IC50 is listed for CCCCCCCCCCOc1cc2c(OC(=O)N3CCN(S(C)(=O)=O)C3=O)c(C(=O)OCCOC)cnc2cc1OCC [RMB055] ?
200

Which IC50 is listed for CCCCCCCCCCOc1cc2c(OC(=O)N3CCN(CC)C(=O)C3=O)c(C(=O)OCCOC)cnc2cc1OCC [RMB054] ?
11.5
